# Target: TBK1 (Homo sapiens (Human))
# Sequence (Q9UHD2 whole entry): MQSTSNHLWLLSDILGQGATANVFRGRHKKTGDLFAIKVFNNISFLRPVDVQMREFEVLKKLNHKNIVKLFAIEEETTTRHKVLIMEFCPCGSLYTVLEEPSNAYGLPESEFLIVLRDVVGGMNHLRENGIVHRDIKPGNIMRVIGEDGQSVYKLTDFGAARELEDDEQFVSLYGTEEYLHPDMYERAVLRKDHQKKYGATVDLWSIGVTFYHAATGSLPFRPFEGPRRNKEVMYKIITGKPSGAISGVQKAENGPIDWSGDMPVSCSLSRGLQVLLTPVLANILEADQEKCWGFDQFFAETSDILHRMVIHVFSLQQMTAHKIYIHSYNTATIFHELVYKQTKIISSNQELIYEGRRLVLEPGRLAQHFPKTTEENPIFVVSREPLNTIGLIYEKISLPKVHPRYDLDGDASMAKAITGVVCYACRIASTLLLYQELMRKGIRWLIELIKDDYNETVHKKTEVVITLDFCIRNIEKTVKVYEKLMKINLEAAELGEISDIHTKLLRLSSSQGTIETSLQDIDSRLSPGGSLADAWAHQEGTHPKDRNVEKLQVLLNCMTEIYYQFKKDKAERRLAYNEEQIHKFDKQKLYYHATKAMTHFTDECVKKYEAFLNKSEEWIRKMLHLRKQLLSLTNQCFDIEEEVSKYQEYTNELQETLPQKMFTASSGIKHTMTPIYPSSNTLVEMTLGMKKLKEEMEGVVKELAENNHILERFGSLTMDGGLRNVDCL
# Protocol Details: TR-FRET kinase assay, TBK1
# Condition Details: read-out: TBK1-IC50; full length recombinant TBK1 2.5 nM, 2x Km ATP, 1 μM peptide, 240 min at 25° C.; geometric mean of minimum four determinations
# note: boundary value 2 nM maps to -1; IC50 below it maps to 1

Say whether its IC50 is strictly beneath 2 nM. Entry: N#Cc1cc(-c2ccnc3[nH]c(-c4ccc(N5CCN(C6COC6)CC5)cc4)cc23)ccc1OC1CCOCC1 [Example 85]
1

Say whether its IC50 is strictly beneath 2 nM. Entry: N#Cc1cc(-c2ncnc3[nH]c(-c4ccc(N5CCOCC5)cc4)nc23)ccc1OC1CCN(C=O)CC1 [Example 250]
-1

Say whether its IC50 is strictly beneath 2 nM. Entry: CN1CCN(c2ccc(-c3cc4c(-c5ccc(OC6CCOCC6)c(C#N)c5)ncnc4[nH]3)cc2)CC1 [Example 219]
-1

Say whether its IC50 is strictly beneath 2 nM. Entry: COc1ccc(-c2cc3c(-c4ccc(OC5CCN(C(=O)CO)CC5)c(C#N)c4)ncnc3[nH]2)c(C)c1 [Example 131]
-1

Say whether its IC50 is strictly beneath 2 nM. Entry: N#Cc1cc(-c2ccnc3[nH]c(-c4ccc(N5CCN(C6COC6)CC5)cc4)cc23)ncc1OC1CCN(C(=O)CO)CC1(F)F (stereo not drawn) [Example 176]
1

Say whether its IC50 is strictly beneath 2 nM. Entry: O=C1NCc2cc(-c3cc4c(-c5ccc6c(c5)CNC6=O)ncnc4[nH]3)ccc21 [Example 224]
-1
